Collected PD values appear next to each entry.
Test system: P. falciparum 3D7 trophozoites
Test: Metabolomic fingerprint profiling LC-MS
Assay type: cell-based, Plasmodium falciparum
Details: S2 Table Metabolomics; peptide PD

compound: COc1ccc(-n2ccnc2SCC(=O)Nc2cc(C)ccc2C)c(OC)c1
PD: -0.04264

compound: COc1ccc(-c2cc3c(SCC(=O)Nc4cc(C(F)(F)F)ccc4Cl)nccn3n2)cc1
PD: -0.04215

compound: CCOc1cc2c(cc1OCC)C(c1cc(OC)c(O)cc1Cl)NCC2 (stereo not drawn)
PD: -0.4938

compound: COc1ccc(-c2c(C)nn3c(N)c(C#N)cnc23)cc1OC
PD: -0.9589

compound: CCN(CC)CCNc1ccnc2cc(Cl)ccc12
PD: -0.5241

compound: Cc1cc(NC(=O)C2c3ccccc3C(=O)N(CC(C)C)C2c2cccs2)no1 (stereo not drawn)
PD: -2.845
